Values were extracted from the supplement of paper PMC4466140.

target: SpBzz1-D1; test: SPOT peptide array binding signal intensity (averaged, normalized) (arbitrary units (background-subtracted, floor 0; scale differs between SH3 domains)); higher = stronger binding of the SH3 domain to the peptide
Assign yes (1) whenever SPOT peptide array binding signal intensity does not fall below 200; assign no (0) whenever it does.

Below, 5 binders whose answers are already recorded.
YVRRRPRVRLEPLLS :: no (0)
IKKRNKIRLPSGSPE :: no (0)
PSRRDSLSIPRAVDA :: no (0)
SSTPTTPERPKRKSG :: no (0)
VNIPSPSSSPPPIPK :: no (0)

Ask: Exam item: decide whether the reported SPOT peptide array binding signal intensity for NQARKPFLLPATELS is at least 200.
Reply: no (0)

Ask: Exam item: decide whether the reported SPOT peptide array binding signal intensity for LRWRHKFFLPAIAAI is at least 200.
Reply: no (0)
